Origin of values: patent US20220306762A1

Target: T1, murine CD38 on transiently transfected Expi293 cells (Origene MC208001) (murine, UniProt P56528 1-304)
T1 construct: whole, on cells; also called Murine (FACs)
T1 sequence (looked up): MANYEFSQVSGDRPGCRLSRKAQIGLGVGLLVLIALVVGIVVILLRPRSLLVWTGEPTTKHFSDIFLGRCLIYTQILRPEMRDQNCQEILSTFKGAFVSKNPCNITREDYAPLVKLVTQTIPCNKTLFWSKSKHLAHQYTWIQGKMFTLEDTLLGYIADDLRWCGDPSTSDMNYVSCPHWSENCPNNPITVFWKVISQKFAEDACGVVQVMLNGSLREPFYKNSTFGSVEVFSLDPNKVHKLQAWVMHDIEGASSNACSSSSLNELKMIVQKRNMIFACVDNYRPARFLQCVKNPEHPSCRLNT
Test: flow cytometry, transfected Expi293 cells;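 also: antibody binding to Expi293 cells transiently expressing human or murine CD38, antibodies applied at 10 ug/ml for 60 min on ice, read by flow cytometry as percent gated cells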
Friendly reminder: FACs 10 ug/ml (percent gated) below 70% is condition met, at or above is condition not met.

40566p1.B3 (scFv, V domains shown, tested as scFv-Fc supernatant) VH: DVQLVESGGGVVRPGESLRLSCAASGFTFDNYDMTWVRQAPGEGLEWVSFISSRGTFTYYTDSVRGRFTISRDNSKNTLYLEMNSLRAEDTAIYYCAKDSGEYYFFDYWGLGTLVTVSS VL: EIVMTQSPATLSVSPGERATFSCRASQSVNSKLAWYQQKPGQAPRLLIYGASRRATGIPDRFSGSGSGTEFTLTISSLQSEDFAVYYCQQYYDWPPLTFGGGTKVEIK : condition not met
40769p1.1.B12 (scFv, V domains shown, tested as scFv-Fc supernatant) VH: EVQLLESGGGLIQPGGSLRLSCTASGFDFSSYGMHWVRQAPGKGLEWVGIISDSGGTTYYADSVKGRFTISRDNSKNTMYLQMNSLRAEDTALYYCASYIMDVWGQGITVTVSS VL: QSVLTQPPSASGTPGQRVTISCSGSSSNVGGNSVYWYQQLPGTAPKLLFYGNHRRPSGVPDRFSGSKSGTSASLAISGLQSEDEADYYCAVWDDSLNAWVFGGGTKLTVL : condition met
40566p1.A12 (scFv, V domains shown, tested as scFv-Fc supernatant; also called 40566p1.Al2) VH: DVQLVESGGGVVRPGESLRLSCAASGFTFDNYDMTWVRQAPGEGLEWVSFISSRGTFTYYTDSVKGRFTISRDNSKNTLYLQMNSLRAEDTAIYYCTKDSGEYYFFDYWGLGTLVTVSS VL: EIVMTQSPATLSVSPGERATFSCRASQSVNSKLAWYQQKPGQAPRLLIYDASRRATGIPDRFSGSGSGTEFTLTISSLQSEDFAVYYCQQYYDWPPLTFGGGTKVEIK : condition not met

As a next step, examine the binder that follows.
I wonder whether 40566p1.A7 (scFv, V domains shown, tested as scFv-Fc supernatant) VH: RELVESGGGVVRPGESLRLSCAASGFTFDNYDMTWVRQAPGEGLEWVSFISSRGTFTYYTDSVRGRFTISRDNSKNTLYLEMNSLRAEDTAIYYCAKDSGEYYFFDYWGLGTLVTVSS VL: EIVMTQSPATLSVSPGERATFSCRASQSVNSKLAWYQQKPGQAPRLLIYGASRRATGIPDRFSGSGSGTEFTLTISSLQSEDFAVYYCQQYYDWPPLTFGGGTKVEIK has FACs 10 ug/ml (percent gated) below 70%. Can you tell? condition not met
